Experiment: ATG_NFI_CIS: Attagene CIS-FACTORIAL HepG2 Assay for human Nuclear Factor I (NFI) (AID 2282989)
Details: HepG2 cis-regulatory reporter, NFI response element transcription; actives raise or lower the signal
Active and inactive are the calls of the source. How the source made its calls: active means hit-call score of the fitted dose curve at least 0.9, where 1 is the maximum; inactive means score below 0.9.

{"columns": ["molecule", "outcome"],
 "data": [
  ["O=C(NC(=O)c1c(F)cccc1F)Nc1ccc(Oc2ccc(C(F)(F)F)cc2Cl)cc1F", "inactive"],
  ["CN1C(=O)CCS(=O)(=O)C1c1ccc(Cl)cc1 (configuration not stated)", "inactive"],
  ["Nc1ccccc1C(=O)OCCc1ccccc1", "inactive"],
  ["O=C(CCl)c1ccccc1", "inactive"],
  ["COC(=O)c1ccccc1S(=O)(=O)NC(=O)Nc1nc(C)cc(C)n1", "inactive"],
  ["O=c1[nH]c(Cl)c(Cl)cc1Cl", "inactive"],
  ["O=S(=O)(c1ccccc1)c1ccccc1", "inactive"]
]}
